System: Candida albicans
Experiment: Binding affinity to Candida albicans CaMdr1p expressed in yeast AD1-8u
Active and inactive are the calls of the source. How the calls were made is not given here.
Your reply should match one of these outcome classes. active, inactive

compound | category label
CC/C(=C(\c1ccccc1)c1ccc(OCCN(C)C)cc1)c1ccccc1 | inactive

Assay outcome for OC(Cn1cncn1)(Cn1cncn1)c1ccc(F)cc1F : what was it?
active

Assay outcome for O=C(N[C@H](CO)[C@H](O)c1ccc([N+](=O)[O-])cc1)C(Cl)Cl : what was it?
inactive

* * *

# Lookup of reported inhibition zone (IZ) keyed by entry
Tested on: Saccharomyces cerevisiae; further: test concentration or dose not given here
Assay: Antifungal activity against yeast AD1-8u expressing Candida albicans CaCdr1p by agar disk diffusion assay
Assay type: functional
Numbered stars: 1 amine (or outer) side, 2 acyl side, 3 side chain; on linkers, the order of the positions; unused ones are H or OH. Bridge positions count the residues as written; N and C are the ends. Square brackets hold non-standard residues; d marks the D form. Peptide text beside a SMILES is read from it. I, II: the chains in the order shown. Actinocin(1to9) = Cc1c2oc3c(C)ccc(C(=O)[*:2])c3nc-2c(C(=O)[*:1])c(N)c1=O; NMeV = CN[C@H](C(=O)O)C(C)C; Sar = CNCC(=O)O
Record the result as a number with its unit.

compound | inhibition zone (IZ)
Oc1cccc2cccnc12 | 0 cm

Annotate the compound CC(=O)O[C@H]1C(=O)[C@@]2(C)[C@H]([C@H](OC(=O)c3ccccc3)[C@]3(O)C[C@H](OC(=O)[C@H](O)[C@@H](NC(=O)c4ccccc4)c4ccccc4)C(C)=C1C3(C)C)[C@]1(OC(C)=O)CO[C@@H]1C[C@@H]2O with its measured inhibition zone (IZ).
0 cm

Annotate the compound COC(=O)C1=C(C)NC(C)=C(C(=O)OCCCN2CCC(c3ccccc3)(c3ccccc3)CC2)[C@H]1c1cccc([N+](=O)[O-])c1 with its measured inhibition zone (IZ).
0.5 cm

Annotate the compound CCCCCCCCCCCC(=O)OCCN(CC)CC with its measured inhibition zone (IZ).
0.2 cm

Annotate the compound Cc1c2oc3c(C)ccc(C(=O)N[C@@H]4C(=O)N[C@H](C(C)C)C(=O)N5CCC[C@H]5C(=O)N(C)CC(=O)N(C)[C@@H](C(C)C)C(=O)O[C@@H]4C)c3nc-2c(C(=O)N[C@@H]2C(=O)N[C@H](C(C)C)C(=O)N3CCC[C@H]3C(=O)N(C)CC(=O)N(C)[C@@H](C(C)C)C(=O)O[C@@H]2C)c(N)c1=O [DACTINOMYCIN] (I: T[dV]P[Sar][NMeV] / II: T[dV]P[Sar][NMeV]; ester I:1-I:C, II:1-II:C; linker I:N-II:N via Actinocin(1to9)) with its measured inhibition zone (IZ).
0.1 cm

Annotate the compound CC(=O)N1CCN(c2ccc(OCC3COC(Cn4ccnc4)(c4ccc(Cl)cc4Cl)O3)cc2)CC1 (stereo unspecified) with its measured inhibition zone (IZ).
1.4 cm

Annotate the compound CCC(C)n1ncn(-c2ccc(N3CCN(c4ccc(OCC5COC(Cn6cncn6)(c6ccc(Cl)cc6Cl)O5)cc4)CC3)cc2)c1=O (stereo unspecified) with its measured inhibition zone (IZ).
1.1 cm
